Tested on: 945468-187-T-J3-PDC spheroids with HUVEC/MSC, viability;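 further: spheroids exposed to agents for 7 days before viability read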
Assay: Anticancer human tumor 945468-187-T-J3-PDC patient-derived rectal carcinoma cell line growth inhibition [PI3K]
Details: curve of first compound; second compound 0.316 µM
Text: Combinatorial screen of targeted agents with the PI3K inhibitors inavolisib, alpelisib, duvelisib, and copanlisib in multi-cell type tumor spheroids A high-throughput screen of multi-cell type tumor spheroids was designed to identify active combinations of targeted small molecules and PI3K pathway inhibitors. […] Compounds. […] If the clinical Cmax for an agent had not been determined, the highest concentration tested was 10 microM. […]
pIC50: −log10 of the molar value.
Answer each item with its documented pIC50.

Worked cases, answers included:
Cn1nccc1Nc1nccc(-c2ccn(C(CO)c3ccc(Cl)c(F)c3)c(=O)c2)n1 (stereo not drawn) + Cc1nc(NC(=O)N2CCCC2C(N)=O)sc1-c1ccnc(C(C)(C)C(F)(F)F)c1 | < 5.00
C=CC(=O)N1CCN(c2nc(=O)n(-c3c(C)ccnc3C(C)C)c3nc(-c4c(O)cccc4F)c(F)cc23)C(C)C1 (stereo not drawn) + CC(Nc1ncnc2nc[nH]c12)c1cc2cccc(Cl)c2c(=O)n1-c1ccccc1 | < 5.00

Next compound, pIC50 to be filled in.
Query :: What reported pIC50 corresponds to Cn1ncnc1[C@H]1c2n[nH]c(=O)c3cc(F)cc(c23)N[C@@H]1c1ccc(F)cc1 + Cc1nc(NC(=O)N2CCCC2C(N)=O)sc1-c1ccnc(C(C)(C)C(F)(F)F)c1 on 945468-187-T-J3-PDC spheroids with HUVEC/MSC, viability?
Result :: < 7.00
